System: Tobacco Budworm [Heliothis virescens (Fabricius)] larvae
Experiment Description: Tobacco budworm larvae, contact (TBW-C), 5 days
Format: in vivo
Condition Notes: percent in solution, second-instar larvae
Method: The compounds in Tables 1 and 2 above were tested for insecticidal activity using the following testing procedures. LC50 values, based on the results of these tests and calculated according to dosage-mortality curves, are expressed in Table 3. Tobacco Budworm [Heliothis virescens (Fabricius)]: (a) Contact: Test compounds were diluted in a 50-50 acetone-water solution. […] The dishes were placed in a high humidity chamber for 5 days, and percent mortality of the larvae recorded. […]
Threshold-based label: LC50 TBW C (contact) under 0.003% gives y, LC50 TBW C (contact) not under 0.003% gives n.

# example entries with known answers
Ask: # check: LC50 TBW C (contact) < 0.003% for CC(C)C(=Nc1ccc(F)c(Br)c1)OCc1ccc(F)c(Oc2ccc(F)cc2)c1
Result: y

Ask: # check: LC50 TBW C (contact) < 0.003% for Clc1cccc(N=C(OCc2cccc(Oc3ccccc3)c2)C(Cl)Cl)c1
Result: n

Ask: # check: LC50 TBW C (contact) < 0.003% for C#CCc1c(F)c(F)c(COC(=Nc2ccc(F)c(Cl)c2)C(C)C)c(F)c1F
Result: y

New cases:
Ask: # check: LC50 TBW C (contact) < 0.003% for CC(C)C(=Nc1ccc(F)c(C(F)(F)F)c1)OCc1ccc(F)c(Oc2ccccc2)c1
Result: y

Ask: # check: LC50 TBW C (contact) < 0.003% for CC(C)C(=Nc1cc(F)cc(F)c1)OCc1cccc(Oc2ccccc2)c1
Result: n

* * *

System: Maize weevil [Sitophilus zeamais (Motschulsky)]
Experiment Description: Maize weevil on dipped corn seeds (MW), 48 hours
Format: in vivo
Condition Notes: percent in solution, adult weevils
Property Name: LC50 MW

Example molecules with recorded LC50 MW:
Ask: I have this molecule here, CC(C)C(=Nc1ccc(F)c(Br)c1)OCc1cccc(Oc2ccc(F)cc2)c1 , and I need its recorded LC50 MW.
Result: > 0.01%

Ask: I have this molecule here, CC(C)C(=Nc1ccc(Br)c(Cl)c1)OCc1ccc(F)c(Oc2ccc(F)cc2)c1 , and I need its recorded LC50 MW.
Result: > 0.01%

Ask: I have this molecule here, CC(C)C(=Nc1ccc(F)c(Cl)c1)OCc1cccc(Oc2ccc(F)c(F)c2)n1 , and I need its recorded LC50 MW.
Result: > 0.01%

Ask: I have this molecule here, CC(C)C(=Nc1ccc(F)c(Cl)c1)OCC#CCOc1ccccc1 , and I need its recorded LC50 MW.
Result: > 0.01%

Ask: I have this molecule here, CC(C)C(=Nc1ccc(Cl)cc1)OCc1ccc(F)c(Oc2ccc(Cl)cc2)c1 , and I need its recorded LC50 MW.
Result: > 0.01%

Ask: I have this molecule here, Cc1ccc(N=C(OCc2ccc(F)c(Oc3ccc(Cl)cc3)c2)C(C)C)cc1Cl , and I need its recorded LC50 MW.
Result: > 0.01%

Ask: I have this molecule here, CC(C)C(=Nc1ccc(OCC(F)(F)F)c(Cl)c1)OCc1cccc(Oc2ccccc2)c1 , and I need its recorded LC50 MW.
Result: > 0.01%

Ask: I have this molecule here, CC(C)C(=Nc1ccc2c(c1)OC(F)(F)O2)OCc1cccc(Oc2ccc(F)cc2)c1 , and I need its recorded LC50 MW.
Result: 0.0025%

Ask: I have this molecule here, Fc1ccc(COC(=Nc2ccc(C(F)(F)F)cc2)C2CC2)cc1Oc1ccc(Cl)cc1 , and I need its recorded LC50 MW.
Result: > 0.01%

Ask: I have this molecule here, CC(C)C(=Nc1ccc(F)c(Br)c1)OCc1ccc(F)c(Oc2ccc(Cl)cc2)c1 [Compound 379] , and I need its recorded LC50 MW.
Result: > 0.01%

New cases:
Ask: I have this molecule here, CC(C)C(=Nc1ccc(F)c(Cl)c1)OCc1cccc(Oc2ccc(Br)cc2)c1 , and I need its recorded LC50 MW.
Result: > 0.01%

Ask: I have this molecule here, CC(C)C(=Nc1ccc(Cl)cc1)OCc1cccc(Oc2ccc(F)cc2)c1 , and I need its recorded LC50 MW.
Result: > 0.01%

Ask: I have this molecule here, CC(C)C(=Nc1ccc(F)c(Cl)c1)OCc1cc(Oc2ccc(F)cc2)ccn1 , and I need its recorded LC50 MW.
Result: > 0.01%

* * *

Form field: LC50 MW (one value per entry).
Test system: Maize weevil [Sitophilus zeamais (Motschulsky)]
Experiment Description: Maize weevil on dipped corn seeds (MW), 48 hours
Assay type: in vivo
Condition Notes: percent in solution, adult weevils

Example molecules with recorded LC50 MW:
Ask: I have this molecule here, CC(C)C(=Nc1ccc(OCC(F)(F)F)c(Cl)c1)OCc1ccc(F)c(Oc2ccccc2)c1 , and I need its recorded LC50 MW.
Result: > 0.01%

Ask: I have this molecule here, CC(C)C(=Nc1cc(F)c(Cl)cc1Cl)OCc1ccc(F)c(Oc2ccc(F)cc2)c1 , and I need its recorded LC50 MW.
Result: > 0.01%

Ask: I have this molecule here, CC(C)C(=Nc1ccc(Br)cc1F)OCc1cccc(Oc2ccc(F)cc2)c1 , and I need its recorded LC50 MW.
Result: > 0.01%

Ask: I have this molecule here, CC(C)C(=Nc1cccc([N+](=O)[O-])c1)OCc1cccc(Oc2ccc(Cl)cc2)c1 , and I need its recorded LC50 MW.
Result: > 0.01%

Ask: I have this molecule here, CC(C)C(=Nc1ccc(F)c(Cl)c1)OCc1ccc(F)c(Oc2ccc(F)cc2)c1 , and I need its recorded LC50 MW.
Result: 0.0017%

New cases:
Ask: I have this molecule here, CC(C)C(=Nc1ccc(Br)cc1)OCc1ccc(F)c(Oc2ccc(F)cc2)c1 , and I need its recorded LC50 MW.
Result: > 0.01%

Ask: I have this molecule here, CCOc1ccc(N=C(OCc2ccc(F)c(Oc3ccc(Cl)cc3)c2)C(C)C)cc1 , and I need its recorded LC50 MW.
Result: > 0.01%

Ask: I have this molecule here, CC(C)C(=Nc1ccc2c(c1)OCO2)OCc1cc(Oc2ccc(F)cc2)ccn1 , and I need its recorded LC50 MW.
Result: > 0.01%

* * *

Form field: LC50 TBW C (contact) (one value per entry).
Test system: Tobacco Budworm [Heliothis virescens (Fabricius)] larvae
Experiment Description: Tobacco budworm larvae, contact (TBW-C), 5 days
Type: in vivo
Condition Notes: percent in solution, second-instar larvae
All answers are understood in %, so give the number only.

Ask: I have this molecule here, CC(C)C(=Nc1ccc2c(c1)OC(C)(C)O2)OCc1cccc(Oc2ccc(F)cc2)c1 , and I need its recorded LC50 TBW C (contact).
Result: 0.004

Ask: I have this molecule here, COc1ccc(N=C(OCc2cccc(Oc3ccccc3)c2)C(C)C)cc1Cl , and I need its recorded LC50 TBW C (contact).
Result: 0.004

New cases:
Ask: I have this molecule here, CC(C)C(=Nc1ccc(F)c(Cl)c1)OCc1ccc(F)c(Oc2ccc(Cl)cc2)c1 , and I need its recorded LC50 TBW C (contact).
Result: 0.0003

Ask: I have this molecule here, CC(C)C(=Nc1ccc2c(c1)OCO2)OCc1cccc(Oc2ccccc2)c1 , and I need its recorded LC50 TBW C (contact).
Result: 0.003

Ask: I have this molecule here, CC(C)C(=Nc1ccc(F)cc1)OCc1ccc(F)c(Oc2ccc(Cl)cc2)c1 , and I need its recorded LC50 TBW C (contact).
Result: 0.0006

Ask: I have this molecule here, CC(C)C(=Nc1ccc(C(F)(F)F)cc1)OCc1ccc(F)c(Oc2ccccc2)c1 , and I need its recorded LC50 TBW C (contact).
Result: 0.0005

Ask: I have this molecule here, CC(C)(C)C(=Nc1ccc(Cl)cc1)OCc1cccc(Oc2ccccc2)c1 , and I need its recorded LC50 TBW C (contact).
Result: 0.01

* * *

Tested on: Maize weevil [Sitophilus zeamais (Motschulsky)]
Experiment Description: Maize weevil on dipped corn seeds (MW), 48 hours
Assay type: in vivo
Condition Notes: percent in solution, adult weevils
Form field: LC50 MW (one value per entry).

Ask: I have this compound here, CC(C)C(=Nc1ccc(F)c(Cl)c1)OCc1cccc(Oc2ccc(F)cc2)c1 , and I need its recorded LC50 MW.
Result: 0.005%

Ask: I have this compound here, CC(C)C(=Nc1ccc(F)c(F)c1)OCc1ccc(F)c(Oc2ccc(Cl)cc2)c1 , and I need its recorded LC50 MW.
Result: 0.0053%

Ask: I have this compound here, CC(C)C(=Nc1ccc(F)c(Cl)c1)OCc1cc(Oc2ccc(F)cc2)ccc1F , and I need its recorded LC50 MW.
Result: 0.038%

Ask: I have this compound here, Clc1cccc(N=C(OCc2cccc(Oc3ccccc3)c2)C(Cl)Cl)c1 , and I need its recorded LC50 MW.
Result: > 0.01%

Ask: I have this compound here, CC(C)C(=Nc1ccc(Cl)c(C(F)(F)F)c1)OCc1ccc(F)c(Oc2ccccc2)c1 , and I need its recorded LC50 MW.
Result: > 0.01%

New cases:
Ask: I have this compound here, CC(C)C(=Nc1ccc(Cl)c(C(F)(F)F)c1)OCc1cccc(Oc2ccc(F)cc2)c1 , and I need its recorded LC50 MW.
Result: > 0.01%

Ask: I have this compound here, Cc1ccc(N=C(OCc2ccc(F)c(Oc3ccccc3)c2)C(C)C)cc1F , and I need its recorded LC50 MW.
Result: 0.0068%

Ask: I have this compound here, CC(C)C(=Nc1ccc(Br)c(C(F)(F)F)c1)OCc1ccc(F)c(Oc2ccc(F)cc2)c1 , and I need its recorded LC50 MW.
Result: > 0.01%

Ask: I have this compound here, Fc1ccc(N=C(OCc2cccc(Oc3ccccc3)c2)C(F)(F)C(F)(F)F)cc1Cl , and I need its recorded LC50 MW.
Result: > 0.01%

Ask: I have this compound here, CC(C)C(=Nc1ccc(F)c(F)c1)OCc1ccc(F)c(Oc2ccccc2)c1 , and I need its recorded LC50 MW.
Result: 0.0091%

Ask: I have this compound here, C=C(C)C(=Nc1ccc(C(F)(F)F)cc1)OCc1cccc(Oc2ccc(F)cc2)c1 , and I need its recorded LC50 MW.
Result: > 0.01%

Ask: I have this compound here, Cc1ccc(Oc2cccc(COC(=Nc3ccc(C(C)(C)C)cc3)C(C)C)c2)cc1 , and I need its recorded LC50 MW.
Result: > 0.01%

Ask: I have this compound here, CC(C)C(=Nc1ccc(F)c(I)c1)OCc1cccc(Oc2ccc(F)cc2)c1 , and I need its recorded LC50 MW.
Result: 0.0075%

Ask: I have this compound here, CC(C)C(=Nc1ccc([N+](=O)[O-])c(C(F)(F)F)c1)OCc1cccc(Oc2ccccc2)c1 , and I need its recorded LC50 MW.
Result: > 0.01%

Ask: I have this compound here, CC(C)c1ccc(N=C(OCc2cccc(Oc3ccccc3)c2)C2CCC2)cc1 , and I need its recorded LC50 MW.
Result: > 0.01%

Ask: I have this compound here, CC(C)C(=Nc1cccc(F)c1)OCc1ccc(F)c(Oc2ccc(Cl)cc2)c1 , and I need its recorded LC50 MW.
Result: > 0.01%

Ask: I have this compound here, Cc1cc(N=C(OCc2ccc(F)c(Oc3ccccc3)c2)C(C)C)ccc1F , and I need its recorded LC50 MW.
Result: > 0.01%

Ask: I have this compound here, CC(C)C(=Nc1cccc(C(F)(F)F)c1)OCc1cccc(Oc2ccc(Cl)cc2)n1 , and I need its recorded LC50 MW.
Result: 0.0076%

Ask: I have this compound here, C=C(C)C(=Nc1ccc(C(F)(F)F)cc1)OCc1cccc(Oc2ccccc2)c1 , and I need its recorded LC50 MW.
Result: 0.004%

Ask: I have this compound here, CCOc1ccc(N=C(OCc2ccc(F)c(Oc3ccc(Cl)cc3)c2)C(C)C)cc1Cl , and I need its recorded LC50 MW.
Result: > 0.01%

Ask: I have this compound here, CC(C)C(=Nc1ccc(F)c(Cl)c1)OCc1cccc(Oc2cccc(F)c2)c1 , and I need its recorded LC50 MW.
Result: > 0.01%

Ask: I have this compound here, CC(C)C(=Nc1ccc(F)c(Cl)c1)OCc1cc(Oc2ccc(F)cc2)c(F)cc1F , and I need its recorded LC50 MW.
Result: > 0.01%

Ask: I have this compound here, C=C(C)C(=Nc1ccc(C(F)(F)F)cc1)OCc1ccc(F)c(Oc2ccc(Cl)cc2)c1 , and I need its recorded LC50 MW.
Result: > 0.01%
